target: human Cystic Fibrosis Transmembrane Conductance Regulator (CFTR) harboring the ΔF508 mutation (Homo sapiens, UniProt P13569, DEL508-508); construct: expressed in transfected cells; host or cells: H441 carcinoma line (G418-selected); assay: H441 cell ΔF508-CFTR-HRP cell surface assay (Emax and EC50); assay type: cell-based; settings: NCI-H441, NA = Not active
Sequence (P13569 with tags, fused parts or gaps DEL508-508): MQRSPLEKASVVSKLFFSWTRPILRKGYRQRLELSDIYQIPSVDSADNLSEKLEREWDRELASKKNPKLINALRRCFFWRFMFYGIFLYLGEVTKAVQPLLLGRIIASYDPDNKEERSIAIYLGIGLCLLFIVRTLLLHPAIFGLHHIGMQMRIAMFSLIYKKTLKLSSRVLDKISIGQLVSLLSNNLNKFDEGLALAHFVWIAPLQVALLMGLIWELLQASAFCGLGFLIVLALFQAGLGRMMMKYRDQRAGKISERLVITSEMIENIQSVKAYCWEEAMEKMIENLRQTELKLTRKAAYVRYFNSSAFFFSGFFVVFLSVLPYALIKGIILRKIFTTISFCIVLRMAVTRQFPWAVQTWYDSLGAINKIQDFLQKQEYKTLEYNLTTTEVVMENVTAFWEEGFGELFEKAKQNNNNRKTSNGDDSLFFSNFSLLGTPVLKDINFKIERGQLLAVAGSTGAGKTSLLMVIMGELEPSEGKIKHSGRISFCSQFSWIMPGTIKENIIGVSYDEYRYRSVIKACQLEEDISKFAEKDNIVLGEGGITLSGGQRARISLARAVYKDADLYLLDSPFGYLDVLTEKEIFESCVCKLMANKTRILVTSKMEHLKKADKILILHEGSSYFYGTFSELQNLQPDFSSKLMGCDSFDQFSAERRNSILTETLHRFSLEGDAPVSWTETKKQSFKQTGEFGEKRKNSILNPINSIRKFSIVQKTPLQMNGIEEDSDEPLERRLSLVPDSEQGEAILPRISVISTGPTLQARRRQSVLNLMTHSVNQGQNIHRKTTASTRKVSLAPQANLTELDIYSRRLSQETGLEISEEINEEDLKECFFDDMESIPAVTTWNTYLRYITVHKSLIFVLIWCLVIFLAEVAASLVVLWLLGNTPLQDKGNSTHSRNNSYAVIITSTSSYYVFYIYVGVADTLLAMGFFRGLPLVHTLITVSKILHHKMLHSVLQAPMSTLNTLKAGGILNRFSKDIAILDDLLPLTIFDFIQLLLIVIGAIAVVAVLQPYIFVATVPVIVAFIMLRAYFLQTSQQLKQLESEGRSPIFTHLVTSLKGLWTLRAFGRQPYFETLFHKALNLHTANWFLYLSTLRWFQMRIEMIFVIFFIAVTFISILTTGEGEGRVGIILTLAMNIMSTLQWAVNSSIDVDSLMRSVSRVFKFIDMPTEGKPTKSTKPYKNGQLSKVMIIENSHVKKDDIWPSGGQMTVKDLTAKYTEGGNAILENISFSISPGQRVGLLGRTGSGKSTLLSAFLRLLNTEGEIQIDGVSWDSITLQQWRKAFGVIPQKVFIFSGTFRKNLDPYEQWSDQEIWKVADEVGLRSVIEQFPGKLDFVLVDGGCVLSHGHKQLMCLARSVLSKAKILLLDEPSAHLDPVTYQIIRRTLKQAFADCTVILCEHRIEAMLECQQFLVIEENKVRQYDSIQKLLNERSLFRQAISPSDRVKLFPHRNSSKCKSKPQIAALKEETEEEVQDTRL
Assay readout: Emax (%)

> print(dat)
                                   compound  observed.measurement
1  CC(C)(C)[C@H](NC(=O)c1ccc2ccc(-c3cscn3)cc2c1OCc1ccc(OC(F)(F)F)cc1)C(=O)O                   110
2  CC(C)(c1ccccc1)[C@H](NC(=O)c1ccc2ccccc2c1OCc1ccc(SC(F)(F)F)cc1)C(=O)O                   100
3  CCC(C)(C)C(NC(=O)c1ccc2ccc(C)cc2c1OCc1ccc(C(F)(F)F)cc1)C(=O)O (stereo not drawn)                   322
4  CC(C)(C)[C@H](NC(=O)c1ccc2ccccc2c1OCc1ccc(Cl)c(Cl)c1)C(=O)O                   117
5  CC1([C@H](NC(=O)c2ccc3ccc(C(F)(F)F)cc3c2OCc2ccc(C(F)(F)F)cc2)C(=O)O)CCC1                   227
6  O=C(NC(C(=O)O)C(C(F)(F)F)C(F)(F)F)c1ccc2cc(F)ccc2c1OCc1ccc(C(F)(F)F)cc1 (stereo not drawn)                  31.4
7  C[C@@H](OCc1ccccc1)C(NC(=O)c1ccc2ccccc2c1OCc1nc2ccccc2s1)C(=O)O (stereo partly drawn)                  65.2
8  CC(C)(C)OC(=O)C[C@H](NC(=O)c1ccc2ccccc2c1OCc1ccc(C(F)(F)F)cc1)C(=O)O (stereo in doubt)                  68.7
9  O=C(N[C@@H](Cc1ccccc1)C(=O)O)c1ccc2ccccc2c1OCc1ccc([N+](=O)[O-])cc1                  44.3

Origin of values: patent US12630498B2
